Entries and their measured IC50 follow.
Tested on: RBE cells
Assay: Cell Viability Protocol (CellTiterGlo), RBE cells
Format: cell-based
Settings: RBE or SNU-1079 cells, 72 or 120 hour, cell line and time not given

Examples with answers:
So what IC50 did "CC(C)n1c(C#CC2CCN(S(C)(=O)=O)CC2)c(-c2ccc(Oc3ccccc3)cc2)c2c(N)ncnc21" get with RBE cells?
10 to 1000 nM

So what IC50 did C=CC(=O)N1CCC(N2CC(C#Cc3c(-c4cccc5c4OCO5)c4c(N)ncnc4n3C(C)C)C2)C(O)C1 (stereo not shown) get with RBE cells?
≤ 10 nM

So what IC50 did "C=CC(=O)N[C@H](CO)C(=O)N1CCC(C#Cc2c(-c3ccc(Oc4cccc(C)n4)cc3)c3c(N)ncnc3n2C)CC1" get with RBE cells?
10 to 1000 nM

Here's the next entry for you.
So what IC50 did "Cn1c(C#CC2CN(C(=O)/C=C/CN3CC(F)C3)C2)c(-c2ccc(Oc3ccccc3)cc2)c2c(N)ncnc21" get with RBE cells?
10 to 1000 nM

Where do these numbers come from? They come from patent US20250154154A1.
